Experiment: Clinical pharmacokinetics
Assay type: in vivo, human
Settings: human, plasma; oral; read-out: Median time to peak plasma concentrations (Tmax)

Compound	Tmax
COc1cc2nccc(Oc3ccc(NC(=O)C4(C(=O)Nc5ccc(F)cc5)CC4)cc3)c2cc1OC [cabozantinib]	3 to 4 h

Source of measurements: patent US20190262330A1
